src = ChEMBL document CHEMBL4610084

What MIC was measured for each of the following?
Tested on: Enterococcus faecalis
Assay: Antibacterial activity against Enterococcus faecalis MB76 after 24 hrs by microdilution assay
Type: functional
Conditions: MB76, 24 h
Numbers only; they are read as µM.

input: Look up MIC of "CC1=CC(=O)O[C@@H]1C/C=C(\C)CC[C@@H]1[C@@]2(C)CCC[C@@]3(C)C(=O)O[C@@H](C[C@@]1(C)O)[C@H]23" and report it.
output: 308

input: # return recorded MIC for input "CC1=CC(=O)O[C@@H]1[C@@H](O)/C=C(\C)CC[C@@H]1[C@@]2(C)CCC[C@@]3(C)C(=O)O[C@@H](C[C@@]1(C)O)[C@H]23"
output: 296

input: Quote MIC reported for COC(=O)[C@]1(C)CCC[C@]2(C)[C@H]3CCC(C)(/C=C/c4occc4C)O[C@]3(C)CC[C@H]21 (stereo not given in full) please.
output: 309

====

Please go through the items and note down their MIC.
Test system: Enterococcus durans
Assay: Antibacterial activity against Enterococcus durans MB113 after 24 hrs by microdilution assay
Assay type: functional
Details: MB113, 24 h

input: Quote MIC reported for "CC1=CC(=O)O[C@@H]1C/C=C(\C)CC[C@@H]1[C@@]2(C)CCC[C@@]3(C)C(=O)O[C@@H](C[C@@]1(C)O)[C@H]23" please.
output: > 128 µg/mL

input: Return MIC (reported value) for this compound: CC1=CC(=O)OC1C/C=C(\C)CC[C@@H]1[C@@]2(C)CCC[C@@](C)(CO)[C@@H]2CC[C@@]1(C)O (stereo not given in full)
output: > 128 µg/mL

input: # return recorded MIC for entry "CC1=CC(=O)O[C@@H]1C/C=C(\C)CC[C@@H]1[C@@]2(C)CCC[C@@](C)(CO)[C@@H]2[C@@H](O)C[C@@]1(C)O"
output: > 128 µg/mL

input: For the compound "COc1ccc(-c2cc(=O)c3c(OC)c(OC)c(OC)cc3o2)cc1" , report MIC.
output: 195 µM

input: Return MIC (reported value) for this compound: COC(=O)[C@]1(C)CCC[C@]2(C)[C@H]3CCC(C)(/C=C/c4occc4C)O[C@]3(C)CC[C@H]21 (stereo not given in full)
output: > 128 µg/mL

====

System: Enterococcus gallinarum
Assay: Antibacterial activity against Vancomycin resistant Enterococcus gallinarum MB111 after 24 hrs by microdilution assay
Format: functional
Conditions: MB111, 24 h
metric: MIC
Put down the number, then write its unit next to it.

input: Write down MIC measured for item CC1=CC(=O)OC1C/C=C(\C)CC[C@@H]1[C@@]2(C)CCC[C@@](C)(CO)[C@@H]2CC[C@@]1(C)O (some centres undefined)
output: 158 µM

input: Provide MIC value for the following molecule: COc1ccc(-c2cc(=O)c3c(O)c(OC)c(OC)cc3o2)cc1O [EUPATORIN]
output: 186 µM

input: Annotate the molecule COC1O[C@H]2C[C@@](C)(O)[C@H](CC/C(C)=C/[C@H](O)[C@H]3OC(=O)C=C3C)[C@@]3(C)CCC[C@]1(C)[C@H]23 (some centres undefined) with its measured MIC.
output: 143 µM

input: Report MIC, nothing else, for this molecule: "CC1=CC(=O)O[C@@H]1C/C=C(\C)CC[C@@H]1[C@@]2(C)CCC[C@@]3(C)C(=O)O[C@@H](C[C@@]1(C)O)[C@H]23"
output: 154 µM
